protocolSummary: activity coefficient (dimensionless); of the first substance listed, at infinite dilution; xn = mol fraction of the nth substance listed
conditionSet: 278.15 K; 100 kPa; Liquid; inert gas stripping; x1 = 0
observable: activity coefficient

[[record]]
compound = "CCCCC(C)=O [2-hexanone] + O"
assayvalue = 257

[[record]]
compound = "CCC(C)C(C)=O (stereo not drawn) [3-methyl-2-pentanone] + O"
assayvalue = 216

[[record]]
compound = "CCCC(C)=O [pentan-2-one] + O"
assayvalue = 67.2

[[record]]
compound = "CC(=O)C(C)(C)C [3,3-dimethyl-2-butanone] + O"
assayvalue = 217

[[record]]
compound = "CCCC(=O)CC [3-hexanone] + O"
assayvalue = 260

[[record]]
compound = "CC(=O)CC(C)C [4-methylpentan-2-one] + O"
assayvalue = 239

[[record]]
compound = "CCC(=O)C(C)C [2-methyl-3-pentanone] + O"
assayvalue = 269

[[record]]
compound = "CC(=O)C(C)C [3-methyl-2-butanone] + O"
assayvalue = 64.4


---

protocolSummary: activity coefficient (dimensionless); of the first substance listed, at infinite dilution; xn = mol fraction of the nth substance listed
conditionSet: 308.15 K; 100 kPa; Liquid; inert gas stripping; x1 = 0
# Criterion met = activity coefficient below 300 (exclusive); Criterion not met = activity coefficient at/above 300

[[record]]
molecule = "CC(=O)C(C)C [3-methyl-2-butanone] + O"
labelvalue = "Criterion met"

[[record]]
molecule = "CCCC(=O)CC [3-hexanone] + O"
labelvalue = "Criterion not met"

[[record]]
molecule = "CCC(C)C(C)=O (centres undefined) [3-methyl-2-pentanone] + O"
labelvalue = "Criterion not met"

[[record]]
molecule = "CCC(=O)CC [pentan-3-one] + O"
labelvalue = "Criterion met"

[[record]]
molecule = "CCCCC(C)=O [2-hexanone] + O"
labelvalue = "Criterion not met"

[[record]]
molecule = "CCCC(C)=O [pentan-2-one] + O"
labelvalue = "Criterion met"

[[record]]
molecule = "CC(=O)C(C)(C)C [3,3-dimethyl-2-butanone] + O"
labelvalue = "Criterion not met"

[[record]]
molecule = "CCC(=O)C(C)C [2-methyl-3-pentanone] + O"
labelvalue = "Criterion not met"

[[record]]
molecule = "CC(=O)CC(C)C [4-methylpentan-2-one] + O"
labelvalue = "Criterion not met"


---

protocolSummary: activity coefficient (dimensionless); of the first substance listed, at infinite dilution; xn = mol fraction of the nth substance listed
conditionSet: 328.15 K; 100 kPa; Liquid; inert gas stripping; x1 = 0
observable: activity coefficient

[[record]]
molecule = "CCCCC(C)=O [2-hexanone] + O"
assayvalue = 456

[[record]]
molecule = "CCC(=O)C(C)C [2-methyl-3-pentanone] + O"
assayvalue = 491

[[record]]
molecule = "CC(=O)C(C)(C)C [3,3-dimethyl-2-butanone] + O"
assayvalue = 379

[[record]]
molecule = "CC(=O)CC(C)C [4-methylpentan-2-one] + O"
assayvalue = 410

[[record]]
molecule = "CC(=O)C(C)C [3-methyl-2-butanone] + O"
assayvalue = 119

[[record]]
molecule = "CCC(C)C(C)=O (stereo not drawn) [3-methyl-2-pentanone] + O"
assayvalue = 380

[[record]]
molecule = "CCCC(C)=O [pentan-2-one] + O"
assayvalue = 129

[[record]]
molecule = "CCCC(=O)CC [3-hexanone] + O"
assayvalue = 524

